measured target: T1, human GIP receptor (human, UniProt P48546 22-466)
T1 construct: whole, on cells; also called hGIPR; hGIP-R
T1 sequence (looked up): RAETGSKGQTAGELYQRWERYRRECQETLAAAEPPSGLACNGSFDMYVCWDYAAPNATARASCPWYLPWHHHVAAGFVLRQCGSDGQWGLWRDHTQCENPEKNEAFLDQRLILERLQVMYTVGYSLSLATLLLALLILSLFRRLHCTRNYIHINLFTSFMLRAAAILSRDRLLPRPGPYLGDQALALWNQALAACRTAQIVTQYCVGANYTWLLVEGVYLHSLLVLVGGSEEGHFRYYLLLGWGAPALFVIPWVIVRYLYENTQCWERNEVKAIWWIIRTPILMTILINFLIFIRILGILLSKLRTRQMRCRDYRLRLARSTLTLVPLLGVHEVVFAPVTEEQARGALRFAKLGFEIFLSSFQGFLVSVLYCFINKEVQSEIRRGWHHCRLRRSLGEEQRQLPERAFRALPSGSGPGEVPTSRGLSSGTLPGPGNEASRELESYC
test description: [125I]-GIP competition SPA, hGIPR membranes
Protocol: The binding buffer contains 25 mM HEPES, pH 7.4, 2.5 mM CaCl₂, 1 mM MgCl₂, 0.1% (w/v) bacitracin, 0.003% (w/v) TWEEN®-20, and Roche Complete™ Protease Inhibitors without EDTA. […] Plates are sealed and mixed on a plate shaker (setting 6) for 1 minute and read with a PerkinElmer Trilux MicroBeta® scintillation counter after 2.5 to 12 hours of incubation/settling time at room temperature. […]
parameter: Ki (nM)

INSERT INTO assay_data (binder, parameter, scale_unit, result_value) VALUES
  ('YXEGTXTSDYSIXLDEKAQXEFIXYLIEGGPSSGAPPPS (Aib2; αMeF6; αMeL13; K17((2-[2-(2-Amino-ethoxy)-ethoxy]-acetyl)2-(γ-Glu)-CO-(CH2)18-CO2H); Aib20; D-Glu24; C-terminal NH2) [Example 227]', 'Ki', 'nM', 0.0146),
  ('YXEGTXTSDXSIXLDXKAQXAFIXXLIAGGPSSGAPPPS (Aib2; αMeF(2F)6; 4Pal10; αMeL13; Orn16; K17((2-[2-(2-Amino-ethoxy)-ethoxy]-acetyl)2-(εK)-CO-(CH2)18-CO2H); Aib20; D-Glu24; αMeY25; C-terminal NH2) [Example 252]', 'Ki', 'nM', 0.00971),
  ('YXEGTXTSDYSIXLDKKAQXEFIXYLIEGGPSSGAPPPS (Aib2; αMeF(2F)6; αMeL13; K17((2-[2-(2-Amino-ethoxy)-ethoxy]-acetyl)2-(γ-Glu)-CO-(CH2)18-CO2H); Aib20; D-Glu24; C-terminal NH2) [Example 212]', 'Ki', 'nM', 0.0978),
  ('XXEGTFTSDYSIXLDXKAQXAFIXYLIEGGPSSGAPPPS (D-Tyr1; Aib2; αMeL13; Orn16; K17((2-[2-(2-Amino-ethoxy)-ethoxy]-acetyl)2-(γ-Glu)-CO-(CH2)18-CO2H); Aib20; D-Glu24; C-terminal NH2) [Example 357]', 'Ki', 'nM', 0.316);

The reported measurements were obtained from patent US20200024322A1.
